The measured values listed here are drawn from the Human Domainome abundance scans (Beltran et al. 2025).

B1: Membrane-associated guanylate kinase, WW and PDZ domain-containing protein 2, residues 601 to 682; numbered along this chain, Q86UL8 (parent)
chain: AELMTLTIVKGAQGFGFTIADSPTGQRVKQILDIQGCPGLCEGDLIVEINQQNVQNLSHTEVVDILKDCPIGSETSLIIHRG

# Variants of: B1
# assay.method.text: abundance fitness (aPCA) (normalised: wild type 0, dead -1); higher = more abundant; growth selection in yeast, the domain comes from the species named
# particulars: Homo sapiens
observed.property: abundance fitness

1. Q51M : -0.042
2. G39R : -0.167
3. C41H : 0.144
4. D68R : -0.136
5. Q52M : 0.01
6. S73I : -0.011
7. V54H : -1.18
8. I78F : -0.035
9. G72H : -0.356
10. P38A : -0.096
11. L66T : -0.589
